Where a name gives a salt, the structure may show the parent alone.
READOUT_KIND: melting point

CC#CCC(CC#CC)(C(=O)OC(C)(C)C)S(=O)(=O)c1ccc(N2CCC(NC[C@H](O)c3ccc(O)c(NS(C)(=O)=O)c3)CC2)cc1 [Example 47] | 93 to 95 °C
CCCCN(CC(=O)OCC)S(=O)(=O)c1ccc(N2CCC(NC[C@H](O)c3ccc(O)c(NS(C)(=O)=O)c3)CC2)cc1 [Example 23] | 94 to 95 °C
Cc1ccc(S(=O)(=O)c2ccc(N3CCC(NC[C@H](O)COc4cccc5[nH]c(=O)[nH]c45)CC3)cc2)cc1 [Example 46] | 130 to 132 °C
CNC(=O)C1CCCN1S(=O)(=O)c1ccc(N2CCC(NC[C@H](O)COc3cccc4[nH]c(=O)[nH]c34)CC2)cc1 (stereo partly shown) [Example 17] | 36 to 39 °C
CS(=O)(=O)Nc1cc([C@@H](O)CNC2CCN(c3ccc(S(=O)(=O)N4CCC[C@@H]4C(=O)OCc4ccccc4)cc3)CC2)ccc1O [Example 21] | 62 to 69 °C
CS(=O)(=O)Nc1cc([C@@H](O)CNC2CCN(c3ccc(S(=O)(=O)NCCO)cc3)CC2)ccc1O [Example 24] | 78 to 81 °C
COC(=O)N(CC(=O)OC(C)(C)C)S(=O)(=O)c1ccc(N2CCC(NC[C@H](O)c3ccc(O)c(NS(C)(=O)=O)c3)CC2)cc1 [Example 59] | 110 to 115 °C
CCOC(=O)CN1CCN(S(=O)(=O)c2ccc(N3CCC(NC[C@H](O)c4ccc(O)c(NS(C)(=O)=O)c4)CC3)cc2)CC1 [Example 64] | 91 to 92 °C
CS(=O)(=O)Nc1cc([C@@H](O)CNC2CCN(c3ccc(S(=O)(=O)N(CC(=O)O)Cc4cc(F)ccc4F)cc3)CC2)ccc1O (as salt: salt) [Example 63] | 80 to 82 °C

Could you now consider this next molecule?
Incoming: Specify reported melting point for the molecule shown: COc1ccc(NS(=O)(=O)c2ccc(N3CCC(NC[C@H](O)COc4ccc(O)cc4)CC3)cc2)cc1OC [Example 11]
Outgoing: 101 to 106 °C

----------
SYSTEM_NAME: human β2-adrenergic receptor (Homo sapiens)
Construct: expressed in transfected cells; host or cells: CHO cells
ASSAY_NAME: cAMP accumulation (SPA) in CHO cells transfected with human β2 adrenergic receptor
Assay type: cell-based
CONDITION_INFO: IA = % activity compound / % activity isoproterenol at 10^−5 M; CHO human β2 cells
READOUT_KIND: beta-2 (IA) maximal response relative to isoproterenol

CC(C)CNS(=O)(=O)c1ccc(N2CCC(NC[C@H](O)c3ccc(O)c(NS(C)(=O)=O)c3)CC2)cc1 | (0.29)
CS(=O)(=O)Nc1cc([C@@H](O)CNC2CCN(c3ccc(S(=O)(=O)NCC4CC4)cc3)CC2)ccc1O | (0.29)

----------
SYSTEM_NAME: human β1-adrenergic receptor (Homo sapiens, UniProt P08588)
Construct: expressed in transfected cells; host or cells: CHO cells
Sequence (P08588 whole entry): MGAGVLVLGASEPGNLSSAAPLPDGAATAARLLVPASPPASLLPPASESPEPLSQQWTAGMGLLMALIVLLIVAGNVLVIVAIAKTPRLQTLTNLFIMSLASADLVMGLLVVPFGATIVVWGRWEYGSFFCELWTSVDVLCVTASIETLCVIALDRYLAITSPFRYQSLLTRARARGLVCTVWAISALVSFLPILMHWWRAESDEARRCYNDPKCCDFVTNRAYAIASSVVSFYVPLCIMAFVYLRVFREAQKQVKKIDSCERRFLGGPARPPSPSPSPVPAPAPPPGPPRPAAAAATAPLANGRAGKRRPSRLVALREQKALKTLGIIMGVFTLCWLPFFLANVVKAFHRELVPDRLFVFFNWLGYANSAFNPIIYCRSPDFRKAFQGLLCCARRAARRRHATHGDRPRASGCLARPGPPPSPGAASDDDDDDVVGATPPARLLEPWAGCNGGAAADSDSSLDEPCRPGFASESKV
ASSAY_NAME: cAMP accumulation (SPA) in CHO cells transfected with human β1 adrenergic receptor
Format: cell-based
CONDITION_INFO: IA = % activity compound / % activity isoproterenol at 10^−5 M; CHO human β1 cells
READOUT_KIND: beta-1 (IA) maximal response relative to isoproterenol

CCCCN(CC(=O)O)S(=O)(=O)c1ccc(N2CCC(NC[C@H](O)c3ccc(O)c(NS(C)(=O)=O)c3)CC2)cc1 [Example 20] | (0.4)

----------
Reported pEC50 values follow for various compounds
SYSTEM_NAME: human β1-adrenergic receptor (Homo sapiens, UniProt P08588)
ASSAY_NAME: cAMP accumulation (SPA) in CHO cells transfected with human β1 adrenergic receptor
CONDITION_INFO: CHO cells transfected with human β1-AR; cAMP; 15 min incubation; 10^−8 to 10^−4 M; read-out: beta-1 EC50
When answering, recall that pEC50 equals minus log10 of the concentration in mol/L, and write that number alone.

CN(CC(=O)O)S(=O)(=O)c1ccc(N2CCC(NC[C@H](O)c3ccc(O)c(NS(C)(=O)=O)c3)CC2)cc1 [Example 33] | 4.60
CN1CCN(S(=O)(=O)c2ccc(N3CCC(NC[C@H](O)c4ccc(O)c(NS(C)(=O)=O)c4)CC3)cc2)CC1 [Example 66] | 5.57
CS(=O)(=O)Nc1cc([C@@H](O)CNC2CCN(c3ccc(S(=O)(=O)N4CCC[C@@H]4C(=O)O)cc3)CC2)ccc1O [Example 35] | 4.31
CCOC(=O)CN(CC(C)C)S(=O)(=O)c1ccc(N2CCC(NC[C@H](O)c3ccc(O)c(NS(C)(=O)=O)c3)CC2)cc1 [Example 32] | 5.17
CS(=O)(=O)Nc1cc([C@@H](O)CNC2CCN(c3ccc(S(=O)(=O)NCC4CC4)cc3)CC2)ccc1O [Example 26] | 6.62
CCCCN(CC(=O)O)S(=O)(=O)c1ccc(N2CCC(NC[C@H](O)c3ccc(O)c(NS(C)(=O)=O)c3)CC2)cc1 [Example 20] | 5.00
CCOC(=O)CN(C)S(=O)(=O)c1ccc(N2CCC(NC[C@H](O)c3ccc(O)c(NS(C)(=O)=O)c3)CC2)cc1 [Example 25] | 6.00
CS(=O)(=O)Nc1cc([C@@H](O)CNC2CCN(c3ccc(S(=O)(=O)N(CC(=O)O)Cc4cc(F)ccc4F)cc3)CC2)ccc1O [Example 63] | 5.00

Incoming: Report measured pEC50 on human β1-adrenergic receptor (Homo sapiens, UniProt P08588); entry: CCOC(=O)NC(=O)CNS(=O)(=O)c1ccc(N2CCC(NC[C@H](O)c3ccc(O)c(NS(C)(=O)=O)c3)CC2)cc1 [Example 58]
Outgoing: 5.44

Incoming: Report measured pEC50 on human β1-adrenergic receptor (Homo sapiens, UniProt P08588); entry: CS(=O)(=O)Nc1cc([C@@H](O)CNC2CCN(c3ccc(S(=O)(=O)N(CC(=O)O)CC4CC4)cc3)CC2)ccc1O [Example 31]
Outgoing: 4.70

Incoming: Report measured pEC50 on human β1-adrenergic receptor (Homo sapiens, UniProt P08588); entry: CS(=O)(=O)Nc1cc([C@@H](O)CNC2CCN(c3ccc(S(=O)(=O)N4CC(=O)NC4=O)cc3)CC2)ccc1O [Example 50]
Outgoing: 5.59

Incoming: Report measured pEC50 on human β1-adrenergic receptor (Homo sapiens, UniProt P08588); entry: CCOC(=O)CNS(=O)(=O)c1ccc(N2CCC(NC[C@H](O)c3ccc(O)c(NS(C)(=O)=O)c3)CC2)cc1 [Example 56]
Outgoing: 5.02

Incoming: Report measured pEC50 on human β1-adrenergic receptor (Homo sapiens, UniProt P08588); entry: CC(C)NS(=O)(=O)c1ccc(N2CCC(NC[C@H](O)c3ccc(O)c(NS(C)(=O)=O)c3)CC2)cc1 [Example 29]
Outgoing: 5.70

Incoming: Report measured pEC50 on human β1-adrenergic receptor (Homo sapiens, UniProt P08588); entry: CC(C)OC(=O)C1CCCN1S(=O)(=O)c1ccc(N2CCC(NCC(O)c3ccc(O)c(NS(C)(=O)=O)c3)CC2)cc1 (centres unmarked) [Example 15]
Outgoing: 4.89

----------
SYSTEM_NAME: UniProt P07550
ASSAY_NAME: cAMP accumulation (SPA) in CHO cells transfected with human β2 adrenergic receptor
CONDITION_INFO: CHO cells transfected with human β2-AR; cAMP; 15 min incubation; 10^−8 to 10^−4 M; read-out: beta-2 EC50
READOUT_KIND: pEC50
When answering, recall that pEC50 equals minus log10 of the concentration in mol/L, and write that number alone.

CCOC(=O)CN(CC(C)C)S(=O)(=O)c1ccc(N2CCC(NC[C@H](O)c3ccc(O)c(NS(C)(=O)=O)c3)CC2)cc1 | 5.00
CCOC(=O)NC(=O)CNS(=O)(=O)c1ccc(N2CCC(NC[C@H](O)c3ccc(O)c(NS(C)(=O)=O)c3)CC2)cc1 | 5.41

Could you now consider this next compound?
Incoming: Specify reported pEC50 for the compound shown: `CCOC(=O)[C@H](CC(C)C)NS(=O)(=O)c1ccc(N2CCC(NC[C@H](O)c3ccc(O)c(NS(C)(=O)=O)c3)CC2)cc1`
Outgoing: 6.05

----------
Reported EC50 values follow for various molecules
SYSTEM_NAME: human β2-adrenergic receptor (Homo sapiens, UniProt P07550)
Sequence (P07550 whole entry): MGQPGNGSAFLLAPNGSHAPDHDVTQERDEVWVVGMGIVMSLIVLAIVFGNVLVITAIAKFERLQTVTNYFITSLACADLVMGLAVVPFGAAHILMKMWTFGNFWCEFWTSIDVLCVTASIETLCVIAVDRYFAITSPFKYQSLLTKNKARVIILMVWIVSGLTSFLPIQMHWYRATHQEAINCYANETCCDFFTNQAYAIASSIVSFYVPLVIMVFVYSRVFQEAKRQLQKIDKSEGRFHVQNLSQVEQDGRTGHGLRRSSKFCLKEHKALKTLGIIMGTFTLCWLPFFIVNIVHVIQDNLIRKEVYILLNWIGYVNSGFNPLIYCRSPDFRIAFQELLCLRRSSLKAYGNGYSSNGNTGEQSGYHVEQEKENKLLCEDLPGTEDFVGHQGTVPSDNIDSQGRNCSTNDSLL
ASSAY_NAME: cAMP accumulation (SPA) in CHO cells transfected with human β2 adrenergic receptor
CONDITION_INFO: CHO cells transfected with human β2-AR; cAMP; 15 min incubation; 10^−8 to 10^−4 M; read-out: beta-2 EC50
Report as: number unit

CCCCN(Cc1ccccc1)S(=O)(=O)c1ccc(N2CCC(NCC(O)c3ccc(O)c(NS(C)(=O)=O)c3)CC2)cc1 (centres unmarked) | 310 nM
CC(C)OC(=O)C1CCCN1S(=O)(=O)c1ccc(N2CCC(NCC(O)c3ccc(O)c(NS(C)(=O)=O)c3)CC2)cc1 (centres unmarked) | 160 nM
CCCCNS(=O)(=O)c1ccc(N2CCC(NC[C@H](O)c3ccc(O)c(NS(C)(=O)=O)c3)CC2)cc1 | 170 nM
CS(=O)(=O)Nc1cc([C@@H](O)CNC2CCN(c3ccc(S(=O)(=O)NCC4CC4)cc3)CC2)ccc1O | 270 nM

Could you now consider this next molecule?
Incoming: Report measured EC50 on human β2-adrenergic receptor (Homo sapiens, UniProt P07550); entry: `CS(=O)(=O)Nc1cc([C@@H](O)CNC2CCN(c3ccc(S(=O)(=O)N4CCC[C@H]4C(=O)OCc4ccccc4)cc3)CC2)ccc1O`
Outgoing: 40 nM

// provenance: patent US6444685B1
